System: wheat, winter (winter wheat, Triticum aestivum)
Assay Method Text: Test D controlled growth environment herbicide test, pre- and postemergence
Type: in vivo
Condition Description: Postemergence, 125 g ai/ha; visual rating on scale 0 (no effect) to 100 (complete control), 14 to 21 d
What Plant response rating, Wheat, Winter was measured for each of the following?
Lab note: jot down the number only; don't add units.

Memo: Cc1nn(C)c(=O)c(-c2c(C)sc3c(C)cc(Cl)cc23)c1O , reported Plant response rating, Wheat, Winter: 15

Recorded result, Cc1cc(C)c2sc(C)c(-c3c(O)c(C)nn(C)c3=O)c2c1 , Plant response rating, Wheat, Winter: 5

Recorded result, Cc1nn(C)c(=O)c(-c2ccc(Br)c3ccccc23)c1O , Plant response rating, Wheat, Winter: 0

Looking up Cc1nn(C)c(=O)c(-c2cccc3ccc(Br)cc23)c1O , I see its Plant response rating, Wheat, Winter listed as 0

For CCc1sc2c(C)cc(C)cc2c1-c1c(O)c(C)nn(C)c1=O the compound record lists Plant response rating, Wheat, Winter as 10

* * *

What Plant response rating, Bromegrass, Downy was measured for each of the following?
System: bromegrass, downy (downy bromegrass, Bromus tectorum)
Assay Method Text: Test D controlled growth environment herbicide test, pre- and postemergence
Assay type: in vivo
Condition Description: Preemergence, 250 g ai/ha; scale 0 to 100, 0 no effect, 100 complete control
# print the numeric value only

Value (Plant response rating, Bromegrass, Downy, bromegrass, downy (downy bromegrass, Bromus tectorum)) for record Cc1nn(C)c(=O)c(-c2cccc3ccc(Br)cc23)c1O = 30

Log: bromegrass, downy (downy bromegrass, Bromus tectorum), compound CCc1sc2ccc(C)cc2c1-c1c(O)c(C)nn(C)c1=O , Plant response rating, Bromegrass, Downy = 15

Case CC(=O)Oc1c(C)nn(C)c(=O)c1-c1c(C)sc2ccc(Cl)cc12 , bromegrass, downy (downy bromegrass, Bromus tectorum), Plant response rating, Bromegrass, Downy recorded as 75

Given the compound Cc1ccc2ccccc2c1-c1c(OC(=O)OC(C)C)c(C)nn(C)c1=O and test system bromegrass, downy (downy bromegrass, Bromus tectorum), the measured Plant response rating, Bromegrass, Downy is 60

Item COC(=O)Oc1c(C)nn(C)c(=O)c1-c1c(C)sc2ccc(C)cc12 was tested on bromegrass, downy (downy bromegrass, Bromus tectorum); the reported Plant response rating, Bromegrass, Downy is 85

Item: CCc1sc2c(C)cc(C)cc2c1-c1c(O)c(C)nn(C)c1=O | System: bromegrass, downy (downy bromegrass, Bromus tectorum) | Plant response rating, Bromegrass, Downy: 30

* * *

System: velvetleaf (Abutilon theophrasti)
Assay Method Text: Test C greenhouse herbicide test, pre- and postemergence
Format: in vivo
Condition Description: Postemergence, 250 g ai/ha; scale 0 to 100, 0 no effect, 100 complete control; 13 to 15 d
So I've got a bunch of compounds here, and I need their Plant response rating, Velvetleaf values.

For Cc1ccc2ccccc2c1-c1c(O)c(I)nn(C)c1=O the compound record lists Plant response rating, Velvetleaf as 90

Measured Plant response rating, Velvetleaf of Cc1ccc2sc(C)c(-c3c(OC(=O)OC(C)C)c(C)nn(C)c3=O)c2c1 : 95

Entry CCC(=O)Oc1c(C)nn(C)c(=O)c1-c1c(C)ccc2ccccc12 — recorded Plant response rating, Velvetleaf = 60

response.value for Cc1ccc2ccccc2c1-c1c(O)c(C(F)(F)F)nn(C)c1=O (field: Plant response rating, Velvetleaf) = 100

Reported Plant response rating, Velvetleaf for Cc1cc2ccccc2c(-c2c(O)c(C)nn(C)c2=O)c1C was 90

Plant response rating, Velvetleaf for Cc1nn(C)c(=O)c(-c2cccc3ccccc23)c1O is 80

// Plant response rating, Velvetleaf value for COC(=O)Oc1c(OC)nn(C)c(=O)c1-c1c(C)ccc2ccccc12 : 98

// Plant response rating, Velvetleaf lookup, compound = CC(=O)Oc1c(C)nn(C)c(=O)c1-c1c(C)sc2ccc(C(F)(F)F)cc12 , result: 75

Plant response rating, Velvetleaf for Cc1nn(C)c(=O)c(-c2ccc(Br)c3ccccc23)c1O is 85
